Assay: gradient 5% acetonitrile 3 min, to 50% in 2 min, to 85% in 15 min, held 3 min, 100 µL/min
Conditions: column: Zorbax Extend-C18 2.1 x 50 mm; eluents: water / acetonitrile, 0.1% formic acid
MEASURE_NAME: RP-LC retention time (s)

Known RP-LC retention time results, listed for orientation:
CC(=O)N1CCc2[nH]c3ccc(C(=O)NCc4ccc(N5CCOCC5)cc4)cc3c2C1	635
CCCN(C)C(=O)c1ccc2c(c1)Sc1ncccc1C(=O)N2C(C)C	760
CCn1nccc1C(=O)N1CCCC1c1ccccc1F (centres undefined)	840
Cc1ccc(-n2ncc3c(NCCN4CCOCC4)ncnc32)cc1Cl	613
O=C(Nc1c(C(=O)N2CCN(c3ccccn3)CC2)[nH]c2ccccc12)c1ccc(Cl)cc1	678

I. Cc1cccc(NS(=O)(=O)c2cc3n(c2)CCCN(C)C3=O)c1
II. O=C(Nc1ccc(F)c(F)c1)C1CCN(S(=O)(=O)c2ccc(-c3noc(C4CC4)n3)cc2)CC1
**Query** Field: lower recorded RP-LC retention time (choose I or II ) // respond with label for picked entry
**Result** I

* * *

Experiment: gradient 5% acetonitrile 3 min, to 50% in 2 min, to 85% in 15 min, held 3 min, 100 µL/min
Details: column: Zorbax Extend-C18 2.1 x 50 mm; eluents: water / acetonitrile, 0.1% formic acid
MEASURE_NAME: RP-LC retention time (s)

Reference set (3 entries):
CCCNC(=O)c1nnn(Cc2ccc(Cl)cc2)c1-n1cccc1	980
COc1ccccc1-c1noc(C2CCCN2C(=O)c2ccccc2C)n1 (centres undefined)	896
CCOc1ccc(S(=O)(=O)N2CCC(C(=O)NCCC3=CCCCC3)CC2)cc1	953

1. O=C(Cn1nc(C(=O)N2CCCC2)c2ccccc21)Nc1cccc(C(F)(F)F)c1
2. CC12CC(c3ccccc3O1)C(C(=O)N1CCN(C(=O)c3ccco3)CC1)C(=O)N2 (centres undefined)
**Query** Lab notebook, comparison: 1 versus 2 , higher RP-LC retention time goes to which? Reply briefly: the label of your chosen item.
**Result** 1

* * *

Experiment: gradient 5% acetonitrile 3 min, to 50% in 2 min, to 85% in 15 min, held 3 min, 100 µL/min
Details: column: Zorbax Extend-C18 2.1 x 50 mm; eluents: water / acetonitrile, 0.1% formic acid
MEASURE_NAME: RP-LC retention time (s)

In the examples that follow, each entry is paired with its recorded RP-LC retention time.
O=C1CC(c2noc(-c3ccc(F)c(Cl)c3)n2)CN1c1ccc(F)cc1 (centres undefined)	1070
CC(NC(=O)C1=C2CCCN2c2ccc(F)cc2S1(=O)=O)c1ccc(F)cc1 (centres undefined)	935
Cc1ncsc1CN1CCCC(c2nc(C(C)C)no2)CCNC(=O)CC1 (centres undefined)	598

1. COc1cc(NC(=O)Nc2c(-c3cccnc3)[nH]c3ccccc23)cc(OC)c1
2. Cc1ccc(-c2csc(NC(=O)c3ccccc3Br)n2)c(C)c1
**Query** Param metric = RP-LC retention time; output whichever of 1 , 2 has the minimum value. Pick one and reply with its label.
**Result** 1
(1: 679 s, 2: 1150 s)

* * *

Test: gradient 5% acetonitrile 3 min, to 50% in 2 min, to 85% in 15 min, held 3 min, 100 µL/min
Settings: column: Zorbax Extend-C18 2.1 x 50 mm; eluents: water / acetonitrile, 0.1% formic acid
MEASURE_NAME: RP-LC retention time (s)

Below: 3 molecules and their reported RP-LC retention time.
Clc1ccc(CSc2nnc(-c3ccc(Br)cc3)o2)cc1	1270
CCc1ccc(C2=C(C)C(N3CCC(NC(=O)CCC(C)C)CC3)=NS2(=O)=O)cc1	935
CC(C)c1nn2c(S(=O)(=O)NC3CCCC3)c(C(C)C)nc2s1	1050

1. CC(C)(C)c1csc(-c2csc(S(=O)(=O)NCc3ccc4c(c3)OCO4)c2)n1
2. CCCSCCCNC(=O)Cn1cnc2nc3c(cc2c1=O)CCCC3
**Query** I need your help: which of the pair 1 , 2 has higher RP-LC retention time? Return value: the label identifying the chosen record.
**Result** 1

* * *

Assay: gradient 5% acetonitrile 3 min, to 50% in 2 min, to 85% in 15 min, held 3 min, 100 µL/min
Conditions: column: Zorbax Extend-C18 2.1 x 50 mm; eluents: water / acetonitrile, 0.1% formic acid
MEASURE_NAME: RP-LC retention time (s)

Known results for compounds:
COc1ccccc1CNC(=O)C1CCCN(c2nnc3ccc(Cl)cn23)C1 (stereo not given)	683
COc1cc(NC(=O)C2CN(S(=O)(=O)C3CC3)CC23CCCCC3)cc(OC)c1 (stereo not given)	955

A. CCn1cc(CCNS(=O)(=O)Cc2ccc(F)cc2Cl)c2cccnc21
B. Cc1ccc2nc(C(=O)NCCN(C)C3CCCCC3)cn2c1
**Query** Given the listed records, identify the one among A and B with higher RP-LC retention time. Output the label that corresponds to your choice.
**Result** A
(A: 812 s, B: 564 s)

* * *

Experiment: gradient 5% acetonitrile 3 min, to 50% in 2 min, to 85% in 15 min, held 3 min, 100 µL/min
Details: column: Zorbax Extend-C18 2.1 x 50 mm; eluents: water / acetonitrile, 0.1% formic acid
MEASURE_NAME: RP-LC retention time (s)

Example entries begin here.
CC(C)NC(=O)c1ccc(OCC2CCCN2C(=O)C(C)C)cc1 (stereo not given)	757
Cc1noc(-c2nc(-c3cccc(C(F)(F)F)c3)no2)n1	1080
O=C(c1ccc(OCC2CCCN2C(=O)c2ccc(Cl)cc2)cc1)N1CCOCC1 (stereo not given)	795
NC(=O)c1ccc2c(c1)CCCN2C(=O)c1ccc(Cl)cc1	704
COc1cccc(OCC(=O)N2CC(=O)Nc3ccccc32)c1	869
O=C(c1cn(-c2ccc(S(=O)(=O)N3CCOCC3)cc2)cn1)N1CCN(c2ncccn2)CC1	666

I. CN(C)c1nccnc1OC1CCN(C(=O)c2ccncc2)C1 (stereo not given)
II. CC1CC(C)CN(S(=O)(=O)N2CCCC(C(=O)NCc3ccc(F)cc3)C2)C1 (stereo not given)
**Query** Which shows the larger RP-LC retention time value: I or II ? Give the label under which the chosen entry appears.
**Result** II
(II: 1060 s, I: 553 s)

* * *

Test: gradient 5% acetonitrile 3 min, to 50% in 2 min, to 85% in 15 min, held 3 min, 100 µL/min
Settings: column: Zorbax Extend-C18 2.1 x 50 mm; eluents: water / acetonitrile, 0.1% formic acid
MEASURE_NAME: RP-LC retention time (s)

CCOc1ccccc1C(=O)N1CCC2(CC1)N=C(c1cccc(Br)c1)NO2	951

1. Cn1cc(-c2cc3n(n2)CCCN3C(=O)CCC(=O)NCCCN2CCOCC2)c2ccccc21
2. O=C(N1CCN(c2cc(-c3ccc(Cl)cc3)[nH]n2)CC1)C1(c2ccccc2)CC1
**Query** I'd appreciate it if you could identify which of 1 and 2 has the greater RP-LC retention time. # reply format: chosen label
**Result** 2
(2: 924 s, 1: 611 s)

* * *

Assay: gradient 5% acetonitrile 3 min, to 50% in 2 min, to 85% in 15 min, held 3 min, 100 µL/min
Conditions: column: Zorbax Extend-C18 2.1 x 50 mm; eluents: water / acetonitrile, 0.1% formic acid
MEASURE_NAME: RP-LC retention time (s)

O=C(c1ccc2snnc2c1)N1CCN(c2ccccn2)CC1	576

1. CCOC(=O)c1ccc(NC(=O)CN2CCC(C)CC2)cc1
2. COc1ccc(Cc2nc3nccc(-c4ccc(F)cc4OC)n3n2)cc1
**Query** Identify the entry with the larger RP-LC retention time. Options: 1 and 2 Field: selected label. Fill in the label of the entry you choose.
**Result** 2
(2: 871 s, 1: 561 s)

I. Cc1ccc2c(Nc3ccc(Cl)cc3)c(C(=O)N3CCOCC3)cnc2n1
II. O=C(Nc1ccc(F)cc1)C1CCCN(c2nc3ccccc3nc2C(F)(F)F)C1 (stereo not given)
**Query** Lab notebook, comparison: I versus II , higher RP-LC retention time goes to which? Indicate your choice by writing its label.
**Result** II

A. CC(=O)N1CCc2cc(N3CC(C(=O)NCc4ccco4)CC3=O)ccc21 (stereo not given)
B. O=C(Cn1cccc1-c1nc(-c2ccc3c(c2)OCO3)no1)N1CCN(c2ccccc2)CC1
**Query** Which shows the larger RP-LC retention time value: A or B ? Please indicate the selected item by its label.
**Result** B

a. CC(NC(=O)CCCn1c2ccccc2c2cnn(C)c(=O)c21)c1ccc2c(c1)OCCO2 (stereo not given)
b. O=C(O)c1cccnc1N1CCCCC1
**Query** Hi team, can someone confirm which has the larger RP-LC retention time: a or b ? Thanks. // respond with label for picked entry
**Result** a
(a: 842 s, b: 575 s)

P. COc1ccc(CNC(=O)N2CC(c3nc(C)no3)C3(CCOCC3)C2)cc1 (stereo not given)
Q. Cc1cc(N2CCN(c3ccccn3)CC2)n2nc(C(F)(F)F)c(-c3ccc(Cl)cc3)c2n1
**Query** Of P versus Q , which is the one with smaller reported RP-LC retention time? Please indicate the selected item by its label.
**Result** P
(P: 680 s, Q: 1010 s)
